# Test system: MS2 coat protein
# Procedure text: apparent KD of MS2 coat protein; higher = weaker reporter binding
# Setup conditions: Eterna round: R107; input ligand: tryptophan 2.4 mM
Parameter apparent KD of MS2 coat protein: see the listing below.
Number in nM, nothing else.

Recorded apparent KD of MS2 coat protein, per entry:
AAAUAAAUACAUGAGGAUCACCCAUGUGAAGGAGCGCCCGUUAGGGCAGGUAGGUCGCACAUGAACUCCAAAGUGCAAAAGCACA [ArgEX 17 #OpenEnded]	25.4
UGGGUCGGAUGAGUAAAUUGUCCGACGUAUCGAGGACCGGUACGGCCGCCACUCGGUUGUACAUGAGGAUCACCCAUGUCAGGGU [#1 Same State - Tryptophan A Attempt #16 (HarryS)]	206
UUCAGACAUGAGGAUCACCCAUGUACUGAAGGAGCGGAUAAAUAUCCAGGUAGGUCGCAGUAUUGAGGGUCUACUUCCAGUCUUU [Reoruser]	9.82
AUACAUGAGGAUCACCCAUGUGAUGGCCGGCGAGGACCGGUACGGCCGCCACUCGUGAUCCGUCCCGAGAGCAAAGCUCUCGACA [Raatala]	50.3

**Q:** # input sequence: GCUUGGGUGGCACAGCCCUGGCAGUGCGAUACCAGCACGGUAACGUGCCCUUGGCAGCGCACAUGAGGAUCACCCAUGUGGUGCG [#1 Exclusion - Theophylline A Attempt #25 (HarryS)] ; wanted: its apparent KD of MS2 coat protein
**A:** 62.6
